Values compiled from paper PMC11999280.

Test system: mCherry-GAL9 expressing HEK293 cells
Experiment: GAL9 recruitment assay, HEK293
Format: cell-based
Details: EEE 5 µM, calculated mean from >3 independent exp.
Below, each entry is listed alongside its reported Gal9 response compared to reference.
parameter.measured: Gal9 response compared to reference

1. COc1nn(C2CCN(C(C)C)CC2)cc1Nc1ncc(F)c(-n2ccc3c(C#N)cccc32)n1 :: 0.712
2. COc1nn(C2CCN(C)CC2)cc1Nc1ncc(C(F)(F)F)c(-n2ccc3c(C#N)cccc32)n1 :: 0.024
3. COc1nn(C2CCNCC2)cc1Nc1ncc(F)c(-c2c[nH]c3ccccc23)n1 :: 0.025
4. COc1nn(C2CCN(C)CC2)cc1Nc1ncc(F)c(-n2ccc3c(C#N)cccc32)n1 :: 0.605
5. CCN1CCC(n2cc(Nc3ncc(F)c(-n4ccc5c(C#N)cccc54)n3)c(OC)n2)CC1 :: 0.779
6. COc1nn(C2CCNCC2)cc1Nc1ncc(F)c(-n2ccc3c(C#N)cccc32)n1 :: 0.396
7. CCOc1nn(C2CCN(C)CC2)cc1Nc1ncc(F)c(-n2ccc3c(C#N)cccc32)n1 :: 0.032
8. CCOc1nn(C2CCN(C)CC2)cc1Nc1ncc(C(F)(F)F)c(-c2c[nH]c3ccccc23)n1 :: 0.018
